Data credit: patent EP4653435A1

# method notes: Mouse pharmacokinetics testing
# Format: in vivo, CD1 female mice
# condition set: mouse, in vivo, iv, 2 mg/kg
parameter measured: C0 (ng/mL)

INSERT INTO measurements (compound, u, assay_result) VALUES
  ('CCN(C(=O)C(=O)Nc1cnc(N)c2c1cnn2C)[C@@H]1COc2cc(C(F)(F)F)ccc21 [Compound P19a]', 'ng/mL', 1210);

====

Measured IC50 values are reported for all entries that follow.
# tgt: hERG channels (Homo sapiens, UniProt Q12809)
# Sequence (Q12809 whole entry): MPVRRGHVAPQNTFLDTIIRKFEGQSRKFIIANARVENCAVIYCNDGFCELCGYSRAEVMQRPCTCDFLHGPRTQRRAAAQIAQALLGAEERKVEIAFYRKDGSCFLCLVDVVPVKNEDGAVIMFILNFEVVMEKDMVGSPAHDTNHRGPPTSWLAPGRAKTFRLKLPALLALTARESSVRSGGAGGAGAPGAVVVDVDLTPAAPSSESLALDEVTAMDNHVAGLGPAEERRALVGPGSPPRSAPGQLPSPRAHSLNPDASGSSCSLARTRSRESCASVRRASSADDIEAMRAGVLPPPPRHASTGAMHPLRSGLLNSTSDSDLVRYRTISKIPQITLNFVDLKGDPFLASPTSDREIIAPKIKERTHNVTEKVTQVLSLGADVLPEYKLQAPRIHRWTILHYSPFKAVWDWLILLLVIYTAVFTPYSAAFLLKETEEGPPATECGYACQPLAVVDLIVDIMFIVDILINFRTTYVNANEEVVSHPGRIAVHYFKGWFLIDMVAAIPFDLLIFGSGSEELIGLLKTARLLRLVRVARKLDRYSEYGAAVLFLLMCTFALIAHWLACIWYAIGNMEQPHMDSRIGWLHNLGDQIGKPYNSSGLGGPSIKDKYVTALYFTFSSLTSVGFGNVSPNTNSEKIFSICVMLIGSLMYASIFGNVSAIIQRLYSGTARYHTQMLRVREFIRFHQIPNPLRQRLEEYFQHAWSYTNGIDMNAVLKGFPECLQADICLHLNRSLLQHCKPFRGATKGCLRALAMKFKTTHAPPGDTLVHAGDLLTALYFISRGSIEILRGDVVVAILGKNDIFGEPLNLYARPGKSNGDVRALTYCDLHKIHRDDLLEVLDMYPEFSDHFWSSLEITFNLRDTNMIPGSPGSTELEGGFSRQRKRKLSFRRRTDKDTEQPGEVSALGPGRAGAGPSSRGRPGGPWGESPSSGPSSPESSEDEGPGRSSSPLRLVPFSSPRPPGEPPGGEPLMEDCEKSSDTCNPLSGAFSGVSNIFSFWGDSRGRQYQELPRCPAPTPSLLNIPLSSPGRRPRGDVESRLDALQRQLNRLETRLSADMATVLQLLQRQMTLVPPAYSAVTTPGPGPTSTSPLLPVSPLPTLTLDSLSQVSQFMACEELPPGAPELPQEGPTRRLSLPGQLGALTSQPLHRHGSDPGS
parameter measured: IC50 (nM)

INSERT INTO measurements (compound, parameter_measured, assay_result) VALUES
  ('CN(C(=O)C(=O)Nc1cnc(N)c2c1cnn2C)[C@@H]1COc2cc(SC(F)(F)F)ccc21 [Compound P29a]', 'IC50', 1500),
  ('[2H]C([2H])([2H])N(C(=O)C(=O)Nc1cnc(N)c2c1cnn2C)[C@@H]1COc2cc(SC(F)(F)F)ccc21', 'IC50', 2900);

====

# method notes: Liver microsomal stability assay, mouse
# Assay type: in vitro ADME
# condition set: mouse liver microsomes 0.5 mg/mL, compound 1 µM, NADPH 1 mM, 60 minute
parameter measured: CLint scaled at 1 h, 1 µM (mL/min/kg)

INSERT INTO results (compound, parameter_measured, u, assay_result) VALUES
  ('C[C@H](c1ncccn1)N(Cc1ccc(C(F)(F)F)cn1)C(=O)C(=O)Nc1cnc(N)c2c1cnn2C [Compound P1]', 'CLint scaled at 1 h, 1 µM', 'mL/min/kg', 177),
  ('CCN(C(=O)C(=O)Nc1cnc(N)c2c1cnn2C)[C@@H]1COc2cc(C(F)(F)F)ccc21 [Compound P19a]', 'CLint scaled at 1 h, 1 µM', 'mL/min/kg', 110);

====

Quick reference: F of the listed items.
# method notes: Mouse pharmacokinetics testing
# Format: in vivo, CD1 female mice
# condition set: female, CD1, mouse, in vivo
parameter measured: F

INSERT INTO assay_data (molecule, parameter_measured, assay_result) VALUES
  ('[2H]C([2H])([2H])N(C(=O)C(=O)Nc1cnc(N)c2c1cnn2C)[C@@H]1COc2cc(SC(F)(F)F)ccc21', 'F', '75%'),
  ('CN(C(=O)C(=O)Nc1cnc(N)c2c1cnn2C)[C@@H]1COc2cc(C(F)(F)F)ccc21', 'F', '69%'),
  ('CN(C(=O)C(=O)Nc1cnc(N)c2c1cnn2C)[C@@H]1COCc2nc(C(F)(F)F)ccc21', 'F', '77%'),
  ('CN(C(=O)C(=O)Nc1cnc(N)c2c1cnn2C)C1COc2cc(OC(F)(F)F)ccc21 (centres unmarked)', 'F', '74%'),
  ('[2H]C([2H])([2H])N(C(=O)C(=O)Nc1cnc(N)c2c1cnn2C)[C@@H]1COc2cc(C(F)(F)F)ccc21', 'F', '62%');

====

# Papp A→B per record follows
# method notes: Membrane permeability: Caco-2 assay
# Assay type: in vitro ADME
# condition set: human; Caco-2, apical pH 6.5, basolateral pH 7.4
parameter measured: Papp A→B (×10⁻⁶ cm/s)

INSERT INTO results (compound, assay_result) VALUES
  ('C[C@@H]1CC[C@@H](c2ccc3scnc3c2)N(C(=O)C(=O)Nc2cnc(N)c3c2cnn3C)C1 (racemic)', 2.66),
  ('CN(C(=O)C(=O)Nc1cnc(N)c2c1cnn2C)C1COc2cc(C(F)(F)F)ccc21 (stereo not drawn) [Compound P2]', 13.5),
  ('CN(C(=O)C(=O)Nc1cnc(N)c2c1cnn2C)[C@@H]1COCc2nc(C(F)(F)F)ccc21', 8.65);

====

# method notes: Membrane permeability: Caco-2 assay
# Assay type: in vitro ADME
# condition set: human; Caco-2, apical pH 6.5, basolateral pH 7.4
Papp B→A reference
parameter measured: Papp B→A

INSERT INTO assay_data (compound, parameter_measured, assay_result) VALUES
  ('CN(C(=O)C(=O)Nc1cnc(N)c2c1cnn2C)C1COc2cc(C(F)(F)F)ccc21 (stereo not drawn) [Compound P2]', 'Papp B→A', '205 nm/s'),
  ('C[C@@H]1CC[C@@H](c2ccc3scnc3c2)N(C(=O)C(=O)Nc2cnc(N)c3c2cnn3C)C1 (racemic)', 'Papp B→A', '342 nm/s'),
  ('CN(C(=O)C(=O)Nc1cnc(N)c2c1cnn2C)[C@@H]1COCc2nc(C(F)(F)F)ccc21', 'Papp B→A', '251 nm/s');

====

# efflux ratio values compiled below
# Tested on: MDR1 (P-gp)
# method notes: in vitro
# condition set: dog, MDCK-MDR1, pH 7.4
# Experimental: The membrane permeability of the molecules of the present invention was evaluated to predict their permeability to the brain. The specific procedure was: 1. […] The transport rate of the drug in the apical to basolateral direction was determined: 125 µL of the 1 µM test compound solution was added to a Transwell insert (top compartment), before immediately transferring a 50 µL sample (D0 sample) from the top comparment to a new 96-well plate. […]
parameter measured: efflux ratio

INSERT INTO results (compound, parameter_measured, assay_result) VALUES
  ('[2H]C([2H])([2H])N(C(=O)C(=O)Nc1cnc(N)c2c1cnn2C)[C@@H]1COc2cc(SC(F)(F)F)ccc21 [Compound P32]', 'efflux ratio', 1.28),
  ('CCN(C(=O)C(=O)Nc1cnc(N)c2c1cnn2C)[C@@H]1COCc2nc(C(F)(F)F)ccc21 [Compound P28]', 'efflux ratio', 3.2),
  ('CN(C(=O)C(=O)Nc1cnc(N)c2c1cnn2C)C1COc2cc(S(=O)(=O)C(F)(F)F)ccc21 (stereo not drawn) [Compound P33]', 'efflux ratio', 4.2),
  ('[2H]C([2H])([2H])N(C(=O)C(=O)Nc1cnc(N)c2c1cnn2C)[C@@H]1COc2cc(C(F)(F)F)ccc21 [Compound P22]', 'efflux ratio', 1.38),
  ('CN(C(=O)C(=O)Nc1cnc(N)c2c1cnn2C)[C@@H]1COc2cc(C(F)(F)F)ccc21 [Compound P2a]', 'efflux ratio', 1.5),
  ('CN(C(=O)C(=O)Nc1cnc(N)c2c1cnn2C)[C@@H]1COc2cc(SC(F)(F)F)ccc21 [Compound P29a]', 'efflux ratio', 1.75);

====

Measured log10(IC50), listed per entry.
# Test system: HCT116-MTAPdel
# method notes: 2D antiproliferative assay (CTG cell viability), MTAP-deficient cells
# Type: cell-based
# condition set: Homo sapiens, HCT-116; HCT116 MTAP-deficient cells, 7-10 days, CTG; read-out: HCT116-MTAPdel/IC50/nM
parameter measured: log10(IC50) (log10 of the value in nM)

INSERT INTO measurements (compound, parameter_measured, assay_result) VALUES
  ('C[C@H]1COC[C@@H](c2ccc(OC(F)(F)F)cc2)N1C(=O)C(=O)Nc1cnc(N)c2c1cnn2C (racemic) [Compound P12]', 'log10(IC50)', 0.70),
  ('CN(C(=O)C(=O)Nc1cnc(N)c2c1cnn2C)[C@@H]1COCc2nc(C(F)(F)F)ccc21 [Compound P9a]', 'log10(IC50)', 1.08),
  ('[2H]C([2H])([2H])N(C(=O)C(=O)Nc1cnc(N)c2c1cnn2C)[C@@H]1COc2cc(C(F)(F)F)ccc21 [Compound P22]', 'log10(IC50)', 0.78),
  ('C[C@@H]1COC[C@H](c2ccc(C(F)(F)F)cn2)N1C(=O)C(=O)Nc1cnc(N)c2c1cnn2C [Compound P11b]', 'log10(IC50)', 0.90),
  ('C[C@H]1COC[C@@H](c2ccc(-c3cncc(Cl)c3)cn2)N1C(=O)C(=O)Nc1cnc(N)c2c1cnn2C [Compound P13a]', 'log10(IC50)', 2.79),
  ('CN(C(=O)C(=O)Nc1cnc(N)c2c1cnn2C)C1COCc2nc(C(F)(F)F)ccc21 (centres unmarked) [Compound P9]', 'log10(IC50)', 1.38),
  ('C[C@H]1COC[C@@H](c2ccc(C(F)(F)F)cn2)N1C(=O)C(=O)Nc1cnc(N)c2c1cnn2C (racemic) [Compound P11]', 'log10(IC50)', 1.18),
  ('CCn1ncc2c(NC(=O)C(=O)N(C)[C@@H]3COc4cc(C(F)(F)F)ccc43)cnc(N)c21 [Compound P24]', 'log10(IC50)', 3.38),
  ('Cn1ncc2c(NC(=O)C(=O)N(CC(F)(F)F)[C@@H]3COc4cc(C(F)(F)F)ccc43)cnc(N)c21 [Compound P20a]', 'log10(IC50)', 1.45),
  ('[2H]C([2H])([2H])n1ncc2c(NC(=O)C(=O)N(C)[C@@H]3COc4cc(C(F)(F)F)ccc43)cnc(N)c21 [Compound P23]', 'log10(IC50)', 1.23),
  ('CN(C(=O)C(=O)Nc1cnc(N)c2c1cnn2C)[C@@H]1COc2cc(C(F)(F)F)ccc21 [Compound P2a]', 'log10(IC50)', 0.70),
  ('CCn1ncc2c(NC(=O)C(=O)N(C)[C@@H]3COCc4nc(C(F)(F)F)ccc43)cnc(N)c21 [Compound P25]', 'log10(IC50)', 3.10),
  ('CN(C(=O)C(=O)Nc1cnc(N)c2c1cnn2C)[C@H]1COc2cc(C(F)(F)F)ccc21 [Compound P2b]', 'log10(IC50)', 2.07),
  ('[2H]C([2H])([2H])N(C(=O)C(=O)Nc1cnc(N)c2c1cnn2C)[C@@H]1COc2cc(SC(F)(F)F)ccc21 [Compound P32]', 'log10(IC50)', 0.95);
